Catalogue of molecules with associated GI50
- Test system: MDA-MB-468 breast
- ASSAY_COMMENT: NCI tumour cell line growth inhibition, 48 h

Example cases with answers are listed next.
COc1ccc(C2=NN(C=O)C(c3cccc(Nc4ccnc5cc(Cl)ccc45)c3)C2)cc1 (stereo not given)
417 nM
COc1cc(-c2n/c(=C\c3c(O)[nH]c4ccc(Cl)cc34)cc3c2=Nc2ccccc2-3)ccc1F
1810 nM
COc1ccccc1/C=C/C(=O)c1ccccc1
7230 nM
COc1ccc(-c2ccc(-c3ccc(C(=N)N)cn3)o2)cc1
2040 nM
CNCCn1c(=O)c2cc(OC)c(OC)cc2c2ccc3cc4c(cc3c21)OCO4
74.3 nM
N#CC1=C(c2cccs2)Nc2c(c(-c3ccccc3)nn2-c2ccccc2)C12C(=O)Nc1ccc(Cl)cc12 (stereo not given)
4450 nM

Looking up CCn1c(-c2nonc2N)nc2c(C#CC(C)(C)O)nc(OCCNC)cc21 , I see its GI50 listed as 3320 nM

get_value(item= CN1C(=O)N(C)C2C1NN=c1s/c(=C\c3ccc(F)cc3)c(=O)n12 (stereo not given) , readout=GI50) returns 366 nM

Briefly, GI50 measured for COc1ccc(N2C(=O)[C@H]3CC(C)c4c([nH]c5ccccc45)[C@H]3C2=O)cc1 (stereo not given in full) : 3630 nM

Looking up CN1CCN(Cc2ccc(NC(=O)c3cncc(C#Cc4cnc5ccc(NCCO)nn45)c3)cc2C(F)(F)F)CC1 , I see its GI50 listed as 227 nM

* * *

- Test system: MDA-MB-468 breast
- ASSAY_COMMENT: NCI tumour cell line growth inhibition, 48 h
Criterion: TGI meeting or surpassing 5 µM. Met: 1 (yes). Not met: 0 (no).

Below are worked cases with known answers.
COc1ccc(C2=NN(C=O)C(c3cccc(Nc4ccnc5cc(Cl)ccc45)c3)C2)cc1 (centres undefined)
0 (no)
CN1C(=O)N(C)C2C1NN=c1s/c(=C\c3ccc(F)cc3)c(=O)n12 (centres undefined)
0 (no)
COc1cc2c(=O)n(CCN)c3c4cc5c(cc4ccc3c2cc1OC)OCO5
0 (no)
CCCCCCCCCCCCCCCCCC1=NCCN1C(=O)OCCO
0 (no)
C/C=C1\NC(=O)[C@H]2CSSCCC=C[C@H](CC(=O)N[C@H](C(C)C)C(=O)N2)OC(=O)[C@H](C(C)C)NC1=O
0 (no)
Cc1ccc(-c2csc(NC(=O)CN3CCN(c4cc5c(cc4F)c(=O)c(C(=O)O)cn5C4CC4)CC3)n2)cc1
1 (yes)
CN1CCN(Cc2ccc(NC(=O)c3cncc(C#Cc4cnc5ccc(NCCO)nn45)c3)cc2C(F)(F)F)CC1
0 (no)
Cc1cc(Cl)ccc1Nc1nc(C(F)(F)F)ccc1C(=O)N/N=C/c1ccc([N+](=O)[O-])cc1
1 (yes)

// switching to the query compound
q: Assess whether reported TGI for CCOP(=O)(OCC)O[C@H]1CC[C@]2(C)[C@H]3CC[C@@H]4[C@@H]([C@](C)(O)CCC=C(C)C)CC[C@@]4(C)[C@]3(C)CC[C@H]2C1(C)C sits at 5 µM or higher.
a: 1 (yes)

* * *

- Test system: RXF 393 renal
- ASSAY_COMMENT: NCI tumour cell line growth inhibition, 48 h
MEASURE: TGI (µM)
// note: answer is a bare numeric in µM

Known TGI results, listed for orientation:
O=C(COc1ccc(NC(=O)Nc2ccc(Cl)c(Cl)c2)cc1)N=Nc1c(O)[nH]c2ccc(Br)cc12
3.04
CCOP(=O)(OCC)O[C@H]1CC[C@]2(C)[C@H]3CC[C@@H]4[C@@H]([C@](C)(O)CCC=C(C)C)CC[C@@]4(C)[C@]3(C)CC[C@H]2C1(C)C
19.5
CN1CCN(c2ccc3c(c2)nc(NNC(=O)c2ncccn2)c2cccn23)CC1
3.99

Entry N#CC1=C(c2cccs2)Nc2c(c(-c3ccccc3)nn2-c2ccccc2)C12C(=O)Nc1ccc(Cl)cc12 (centres undefined) ; TGI = 13.3
